The compounds listed here are annotated with their inhibition at 10 µM.
experimental system: glycine site of the NMDA receptor (Rattus norvegicus, UniProt P35439)
Construct: from tissue
assay remarks: Binding to the glycine site of the NMDA receptor (Jones et al.)
Unit % implied. Number only.

Q. State its inhibition at 10 µM: O=C(Cc1ccccc1)N1CCc2c([N+](=O)[O-])cc3[nH]c(=O)c(=O)[nH]c3c2C1 [Example 38]
A. 99

Q. State its inhibition at 10 µM: O=c1[nH]c2cc([N+](=O)[O-])c3c(c2[nH]c1=O)CNCC3 [Example 31]
A. 70

Q. State its inhibition at 10 µM: O=C(Cc1ccc(Cl)cc1)N1CCc2c([N+](=O)[O-])cc3[nH]c(=O)c(=O)[nH]c3c2C1 [Example 39]
A. 98

Q. State its inhibition at 10 µM: O=C(c1ccc(Cl)cc1)N1CCc2c([N+](=O)[O-])cc3[nH]c(=O)c(=O)[nH]c3c2C1 [Example 37]
A. 74

Q. State its inhibition at 10 µM: O=C(C1CCCCC1)N1CCc2c([N+](=O)[O-])cc3[nH]c(=O)c(=O)[nH]c3c2C1 [Example 36]
A. 88

Further cases:
Q. State its inhibition at 10 µM: CC(C)(C)OC(=O)N1CCC(C(=O)N2CCc3c([N+](=O)[O-])cc4[nH]c(=O)c(=O)[nH]c4c3C2)CC1 [Example 34]
A. 81

Q. State its inhibition at 10 µM: O=C(c1ccccc1)N1CCc2c([N+](=O)[O-])cc3[nH]c(=O)c(=O)[nH]c3c2C1 [Example 35]
A. 80

----------
experimental system: kainate site (non-NMDA receptor)
assay remarks: Kainate site (non-NMDA receptor) binding (London and Coyle)
Structures can show the parent of a compound that is named as a salt.
measured property: IC50 (µM)
Unit µM implied. Number only.

Consider the following illustrative entries.
Q. State its IC50: O=c1[nH]c2cc([N+](=O)[O-])c3c(c2[nH]c1=O)CNCC3
A. 0.48

Q. State its IC50: O=c1[nH]c2cc(Br)c3c(c2[nH]c1=O)CN(Cc1ccccc1)CC3
A. 16

Q. State its IC50: O=C(Cc1ccccc1)N1CCc2c([N+](=O)[O-])cc3[nH]c(=O)c(=O)[nH]c3c2C1
A. 1.62

Now let's try a different one.
Q. State its IC50: O=c1[nH]c2cc(Br)c3c(c2[nH]c1=O)CCN(Cc1cccc(C(F)(F)F)c1)C3 [Example 48, hydrochloride]
A. 67

----------
experimental system: kainate site (non-NMDA receptor)
assay remarks: Kainate site (non-NMDA receptor) binding (London and Coyle)
measured property: IC50 (µM)
Unit µM implied. Number only.

Consider the following illustrative entries.
Q. State its IC50: O=C(c1ccccc1)N1CCc2c([N+](=O)[O-])cc3[nH]c(=O)c(=O)[nH]c3c2C1
A. 1.38

Q. State its IC50: O=C(Cc1ccc(Cl)cc1)N1CCc2c([N+](=O)[O-])cc3[nH]c(=O)c(=O)[nH]c3c2C1
A. 8.2

Further cases:
Q. State its IC50: O=c1[nH]c2cc(Br)c3c(c2[nH]c1=O)CN(CCCc1ccccc1)CC3
A. 40

----------
experimental system: glycine site of the NMDA receptor (Rattus norvegicus)
Construct: from tissue
assay remarks: Binding to the glycine site of the NMDA receptor (Jones et al.)
The molecules listed here are annotated with their inhibition at 10 µM.

Q. State its inhibition at 10 µM: O=c1[nH]c2cc(Br)c3c(c2[nH]c1=O)CN(CCCc1ccccc1)CC3
A. < 50%

Further cases:
Q. State its inhibition at 10 µM: O=c1[nH]c2cc(Br)c3c(c2[nH]c1=O)CN(CCc1ccccc1)CC3
A. < 50%

Q. State its inhibition at 10 µM: O=c1[nH]c2cc(Br)c3c(c2[nH]c1=O)CN(Cc1ccccc1)CC3
A. < 50%
